MEASUREMENT TARGET: Single-stranded DNA cytosine deaminase (Homo sapiens)
PROCEDURE DETAILS: Validation qHTS assay for inhibitors of Activation Induced Cytidine Deaminase (AID): AID signal (AID 1347429)
SETTINGS: Recombinant AID, FRET ssDNA deamination with UDG, fluorescence; series mostly up to 115 µM
Activity calls are given as the source filed them. The call rests on the fitted dose curve; in most records, active means well fitted inhibition curve with a large enough effect; inconclusive means small, poorly fitted or top-dose-only effect; inactive means no such curve, though single readings can be large or run the other way.

- COMPOUND: "COC(=O)[C@@H](N)CCCN=C(N)N[N+](=O)[O-]"
  outcome: "inactive"
- COMPOUND: "CN1C2CCC1CC(OC(=O)c1cc(Cl)cc(Cl)c1)C2 (stereo not given)"
  outcome: "inactive"
- COMPOUND: "NC(=NCCC[C@H](N)C(=O)O)N[N+](=O)[O-]"
  outcome: "inactive"
- COMPOUND: "c1ccc2sc(C3(N4CCCCC4)CCCCC3)cc2c1"
  outcome: "inactive"
- COMPOUND: "C[C@]12N[C@H](Cc3ccccc31)c1ccccc12"
  outcome: "inactive"
- COMPOUND: "CC[C@@H](C(N)=O)N1CCCC1=O"
  outcome: "inactive"
- COMPOUND: "Cc1c(C(=O)c2cccc3ccccc23)c2cccc3c2n1[C@H](CN1CCOCC1)CO3"
  outcome: "inactive"
- COMPOUND: "C[C@]12CCC3C(CC[C@H]4C[C@H](O)CC[C@]34C)C1CC[C@@H]2C(=O)CO (stereo not given in full)"
  outcome: "inactive"
- COMPOUND: "C/C=C(/C)C(=O)O[C@H]1C(C)=C2[C@H]([C@@H]1OC(=O)CCCCCCC)[C@@](C)(OC(C)=O)C[C@H](OC(=O)CCC)[C@@]1(O)[C@H]2OC(=O)[C@@]1(C)O"
  outcome: "inactive"
- COMPOUND: "O=C(N[C@H]1CN2CCC1CC2)c1ccc(Cl)cc1"
  outcome: "inactive"
